Source of measurements: the supplement of paper PMC11208160

# Method summary: recombinant barcode read abundance after kanamycin selection (control-corrected) (log10(CPM+1)); higher = more efficient recombination; sequences stand for … in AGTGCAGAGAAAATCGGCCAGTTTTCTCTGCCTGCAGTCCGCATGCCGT…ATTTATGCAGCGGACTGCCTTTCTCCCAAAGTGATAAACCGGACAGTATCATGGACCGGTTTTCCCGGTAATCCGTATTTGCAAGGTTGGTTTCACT; site = the 11-nt target
Property: recombinant barcode read abundance (log10)
Give bare numbers.

Dear colleague, could you please provide recombinant barcode read abundance (log10) for the sequences listed below?
1. AAACAGTGGTGGGTTCTAACCTGTTGCCTAG [AAACAGTCTAG_LTGcore_GG_RTGcore_CT] (site AAACAGTCTAG) (LTG core: GG, RTG core: CT)
2. ATGTCCCGCTGGGTTCTAACCTGTTGCTCGC [ATGTCCCCTGA_LTGcore_GC_RTGcore_GC] (site ATGTCCCCTGA) (LTG core: GC, RTG core: GC)
3. GAGTCCACTTGGGTTCTAACCTGTTGCGTAG [GAGTCCACTAC_LTGcore_CT_RTGcore_CT] (site GAGTCCACTAC) (LTG core: CT, RTG core: CT)

Solution:
[0.0371, 0.103, 2.39]
